biological target: CYP3A4 (Homo sapiens); test: in vitro
Sequence (P08684 whole entry): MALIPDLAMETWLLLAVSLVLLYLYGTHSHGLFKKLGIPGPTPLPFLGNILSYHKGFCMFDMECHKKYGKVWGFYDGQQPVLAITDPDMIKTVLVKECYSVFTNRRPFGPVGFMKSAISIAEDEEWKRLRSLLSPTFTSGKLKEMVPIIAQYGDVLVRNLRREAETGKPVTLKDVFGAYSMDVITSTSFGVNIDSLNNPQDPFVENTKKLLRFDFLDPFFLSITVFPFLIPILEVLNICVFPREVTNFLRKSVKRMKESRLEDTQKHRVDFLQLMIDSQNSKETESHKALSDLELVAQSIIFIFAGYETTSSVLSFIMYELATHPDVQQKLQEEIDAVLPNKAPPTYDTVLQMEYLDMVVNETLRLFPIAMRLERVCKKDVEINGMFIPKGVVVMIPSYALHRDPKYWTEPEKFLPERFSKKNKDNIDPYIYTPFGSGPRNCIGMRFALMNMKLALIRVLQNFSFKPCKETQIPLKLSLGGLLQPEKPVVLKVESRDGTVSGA
Description: Selectivity ratio of time dependent inhibition of CYP3A4 (unknown origin) in presence of NADPH to time dependent inhibition of CYP3A4 (unknown origin) in absence of NADPH
observable: IC50 shift
Enter a number only.

Enquiry: Supply reported IC50 shift belonging to this compound: NS(=O)(=O)c1nccc(-c2ccc(CO)cc2)c1-c1nnn[nH]1
Return: 1

====

IC50 by entry:
assay: Inhibition of GST-tagged bacterial beta-lactamase IMP-1 expressed in Escherichia coli BL21(DE3) using CCF2-FA as substrate by fluorescence assay; parameters: species or system Bacteria
The figure you give is taken to be in nM; do not add the unit.

// below: answered compounds
NS(=O)(=O)c1cccc(-c2ccccn2)c1-c1nn[nH]n1 | 330
c1ccc(-c2ccccc2-c2nn[nH]n2)cc1 | 2
NS(=O)(=O)c1nccc(-c2ccc(CO)cc2)c1-c1nn[nH]n1 | 369
CC(CS)C(=O)N1CCc2ccccc2C1C(=O)O (configuration not stated) | 2.7
NS(=O)(=O)c1cccc(-c2cccnc2)c1-c1nn[nH]n1 | 1780

Moving on to the next compound.
Enquiry: Supply reported IC50 belonging to this compound: Cc1ccc(-c2cccc(S(=O)(=O)O)c2-c2nnn[nH]2)cc1
Return: 2360

====

experiment: Inhibition of Cav1.5 (unknown origin); parameters: species or system Homo sapiens
observable: IC50

Enquiry: Supply reported IC50 belonging to this compound: NS(=O)(=O)c1nccc(-c2ccc(CO)cc2)c1-c1nn[nH]n1
Return: > 30 µM

====

target: Voltage-gated inwardly rectifying potassium channel KCNH2 (Homo sapiens, UniProt Q12809)
Sequence (Q12809 whole entry): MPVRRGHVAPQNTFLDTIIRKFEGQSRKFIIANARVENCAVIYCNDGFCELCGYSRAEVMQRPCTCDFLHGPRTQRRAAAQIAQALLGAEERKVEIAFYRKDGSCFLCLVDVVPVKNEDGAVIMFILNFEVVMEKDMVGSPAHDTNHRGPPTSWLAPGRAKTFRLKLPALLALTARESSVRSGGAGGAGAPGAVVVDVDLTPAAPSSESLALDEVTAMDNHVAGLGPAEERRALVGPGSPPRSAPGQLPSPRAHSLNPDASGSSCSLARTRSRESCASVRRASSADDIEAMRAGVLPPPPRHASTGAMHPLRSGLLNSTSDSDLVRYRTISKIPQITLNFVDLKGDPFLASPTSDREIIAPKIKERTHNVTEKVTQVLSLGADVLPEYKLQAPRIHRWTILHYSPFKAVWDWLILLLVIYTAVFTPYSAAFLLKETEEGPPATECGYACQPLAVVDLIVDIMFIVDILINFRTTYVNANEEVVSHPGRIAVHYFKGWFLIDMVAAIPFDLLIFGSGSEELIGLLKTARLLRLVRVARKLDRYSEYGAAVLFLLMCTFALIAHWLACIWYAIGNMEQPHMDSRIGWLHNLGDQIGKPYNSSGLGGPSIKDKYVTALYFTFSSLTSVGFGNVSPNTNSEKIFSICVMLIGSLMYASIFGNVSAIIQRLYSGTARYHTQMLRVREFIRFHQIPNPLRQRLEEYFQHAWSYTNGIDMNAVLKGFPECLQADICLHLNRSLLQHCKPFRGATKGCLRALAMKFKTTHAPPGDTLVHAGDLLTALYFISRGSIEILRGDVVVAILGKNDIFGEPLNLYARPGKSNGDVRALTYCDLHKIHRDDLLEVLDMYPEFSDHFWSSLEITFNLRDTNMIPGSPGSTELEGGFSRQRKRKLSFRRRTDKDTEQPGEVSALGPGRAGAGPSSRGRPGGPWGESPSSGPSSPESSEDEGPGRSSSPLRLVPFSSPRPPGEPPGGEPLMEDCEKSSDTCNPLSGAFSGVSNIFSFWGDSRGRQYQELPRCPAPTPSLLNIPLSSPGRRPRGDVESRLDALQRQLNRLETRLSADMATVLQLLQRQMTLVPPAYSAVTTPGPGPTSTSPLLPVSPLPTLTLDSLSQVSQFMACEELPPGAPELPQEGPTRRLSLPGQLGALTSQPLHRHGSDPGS
observable: IC50

Enquiry: Answer briefly: IC50 recorded on Voltage-gated inwardly rectifying potassium channel KCNH2 (Homo sapiens, UniProt Q12809) for NS(=O)(=O)c1nccc(-c2ccc(CO)cc2)c1-c1nnn[nH]1
Return: > 60 µM

====

assay: Tmax in mouse at 50 mg/kg, sc; format: ADME, organism-based; conditions: in vivo
observable: Tmax (min)
The figure you give is taken to be in min; do not add the unit.

Enquiry: Supply reported Tmax belonging to this molecule: NS(=O)(=O)c1nccc(-c2ccc(CO)cc2)c1-c1nnn[nH]1
Return: 30

====

assay: Plasma protein binding in C57BL/6 mouse assessed as unbound fraction; format: ADME, cell-free
observable: fraction unbound
Enter a number only.

Enquiry: Supply reported fraction unbound belonging to this molecule: NS(=O)(=O)c1nccc(-c2ccc(CO)cc2)c1-c1nnn[nH]1
Return: 0.43

====

Target: PXR (NR1I2) (Homo sapiens, UniProt O75469)
Sequence (O75469 whole entry): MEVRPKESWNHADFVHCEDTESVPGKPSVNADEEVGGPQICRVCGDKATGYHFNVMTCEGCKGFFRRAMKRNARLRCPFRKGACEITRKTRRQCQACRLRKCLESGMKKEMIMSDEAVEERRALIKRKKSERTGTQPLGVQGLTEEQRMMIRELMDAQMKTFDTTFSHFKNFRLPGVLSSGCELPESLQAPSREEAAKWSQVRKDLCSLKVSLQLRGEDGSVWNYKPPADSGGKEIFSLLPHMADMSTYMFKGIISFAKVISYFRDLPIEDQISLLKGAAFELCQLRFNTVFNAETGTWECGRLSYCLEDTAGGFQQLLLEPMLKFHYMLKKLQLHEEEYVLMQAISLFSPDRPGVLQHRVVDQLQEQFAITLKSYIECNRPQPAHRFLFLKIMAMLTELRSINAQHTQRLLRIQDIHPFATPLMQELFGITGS
Experiment: Inhibition of human PXR at 30 uM relative to control
observable: Emax at 30 µM (%)
The figure you give is taken to be in %; do not add the unit.

Enquiry: Supply reported Emax at 30 µM belonging to this molecule: NS(=O)(=O)c1nccc(-c2ccc(CO)cc2)c1-c1nnn[nH]1
Return: 1.94

====

experiment: Clearance in mouse at 5 mg/kg, iv; format: ADME, organism-based; details: in vivo
observable: clearance (mL/min/kg)
The figure you give is taken to be in mL/min/kg; do not add the unit.

Enquiry: Supply reported clearance belonging to this compound: NS(=O)(=O)c1nccc(-c2ccc(CO)cc2)c1-c1nnn[nH]1
Return: 9.33

====

assay: Plasma protein binding in Wistar Han rat assessed as unbound fraction; format: ADME, cell-free
observable: fraction unbound
Enter a number only.

Enquiry: Supply reported fraction unbound belonging to this compound: NS(=O)(=O)c1nccc(-c2ccc(CO)cc2)c1-c1nnn[nH]1
Return: 0.3

Source: ChEMBL document CHEMBL5236617
